# TESTED_ON: flTau aggregates (longest isoform of human Tau, 2N4R) (Homo sapiens)
# Construct: 35 μM of recombinant full-length (fl) Tau in phosphate-buffered saline (PBS) were aggregated; purchased Biotechne; host or cells: bacteria
# TEST_DETAILS: Full-length Tau (flTau) disaggregation assay by Thioflavin T (ThT)
# Type: biochemical
# EXPERIMENTAL_SETUP: ThT fluorescence; 60 nM flTau aggregates, 30 minutes at RT; read-out: flTau disaggregation EC50
pEC50: −log10 of the molar value. Structures can show the parent of a compound that is named as a salt.
MEASURE: pEC50

Solved cases below.
COMPOUND	pEC50
c1ccc2c(-c3ccc4oc(N5CCOCC5)nc4c3)n[nH]c2c1 [Example 4]	> 6.00
Cn1cc(C2CCN(c3cc4sc(N5CCOCC5)nc4cn3)CC2)c2cc(F)cnc21 [Example 110, hydrochloride]	5.00 to 6.00

For each of the compounds below, state pEC50.
1. O=C(Nc1c[nH]c2ccccc12)c1ccc2oc(N3CCOCC3)nc2c1 [Example 7]
2. Cn1cc(C2CCN(c3ccc4oc(N5CCOCC5)nc4c3)C2)c2cc(F)cnc21 (stereo not drawn) [Example 33]
3. Cn1cc(C2CCN(c3cc4nc(N5CCOCC5)oc4cn3)C2)c2cc(F)cnc21 (stereo not drawn) [Example 86]
4. Fc1ccc2[nH]nc(C3CCN(c4ccc5oc(N6CCOCC6)nc5c4)CC3)c2c1 [Example 61]

(A)
1. > 6.00
2. 5.00 to 6.00
3. 5.00 to 6.00
4. 5.00 to 6.00

###

# TESTED_ON: flTau aggregates (longest isoform of human Tau, 2N4R) (Homo sapiens, UniProt P10636)
# Construct: 35 μM of recombinant full-length (fl) Tau in phosphate-buffered saline (PBS) were aggregated; purchased Biotechne; host or cells: bacteria
# Sequence (P10636 1-441 isoform P10636-8): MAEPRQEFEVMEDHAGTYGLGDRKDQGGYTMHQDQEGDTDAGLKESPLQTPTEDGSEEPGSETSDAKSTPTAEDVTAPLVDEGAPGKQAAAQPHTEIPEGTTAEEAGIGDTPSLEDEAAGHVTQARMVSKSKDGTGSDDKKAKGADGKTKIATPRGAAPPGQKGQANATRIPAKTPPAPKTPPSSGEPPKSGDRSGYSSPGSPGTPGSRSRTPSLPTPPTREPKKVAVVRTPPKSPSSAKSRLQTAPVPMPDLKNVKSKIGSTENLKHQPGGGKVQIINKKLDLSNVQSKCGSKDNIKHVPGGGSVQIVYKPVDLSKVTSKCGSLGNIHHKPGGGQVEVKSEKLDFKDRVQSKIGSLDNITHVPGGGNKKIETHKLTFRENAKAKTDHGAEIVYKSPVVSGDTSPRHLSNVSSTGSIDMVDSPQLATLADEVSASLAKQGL
# TEST_DETAILS: Full-length Tau (flTau) disaggregation assay by Thioflavin T (ThT)
# Type: biochemical
# EXPERIMENTAL_SETUP: ThT fluorescence; 60 nM flTau aggregates, 30 minutes at RT; read-out: flTau disaggregation EC50
pEC50: −log10 of the molar value. Where a name gives a salt, the structure may show the parent alone.
MEASURE: pEC50

Solved cases below.
MOLECULE	TESTED_ON	pEC50
c1ccc2c(C3CCN(c4cc5oc(N6CCOCC6)nc5cn4)CC3)n[nH]c2c1	flTau aggregates (longest isoform of human Tau, 2N4R) (Homo sapiens, UniProt P10636)	4.30 to 5.00
COC1CCN(c2nc3cc(N4CCC(c5n[nH]c6ccccc56)CC4)ccc3o2)CC1	flTau aggregates (longest isoform of human Tau, 2N4R) (Homo sapiens, UniProt P10636)	5.00 to 6.00
O=C(Nc1ccc2oc(N3CCOCC3)nc2c1)c1n[nH]c2ccccc12	flTau aggregates (longest isoform of human Tau, 2N4R) (Homo sapiens, UniProt P10636)	5.00 to 6.00

For each of the molecules below, state pEC50.
1. c1ccc2c(C3CCN(c4cnc5nc(N6CCOCC6)sc5c4)CC3)c[nH]c2c1
2. Cn1cc(C2CCN(c3ccc4oc(N5CCOCC5)nc4c3)CC2)c2ncc(F)cc21
3. c1ccc2c(Nc3ccc4oc(N5CCOCC5)nc4c3)n[nH]c2c1
4. c1ccc2c(C3CCN(c4cc5sc(N6CCOCC6)nc5cn4)CC3)c[nH]c2c1
5. Cn1cc(C2CCN(c3ccc4oc(N5CCOCC5)nc4n3)C2)c2cc(F)cnc21 (centres unmarked) [Example 90]
6. C1=C(c2n[nH]c3ccccc23)CCN(c2ccc3oc(N4CCOCC4)nc3c2)C1

(A)
1: > 6.00; 2: 4.30 to 5.00; 3: 5.00 to 6.00; 4: > 6.00; 5: > 6.00; 6: > 6.00

For each of the molecules below, state pEC50.
1. c1ccc2c(C3CCN(c4ccc5oc(N6CCOCC6)nc5c4)C3)n[nH]c2c1 (centres unmarked) [Example 37]
2. Cn1cc(C2CCN(c3ccc4oc(N5CCOCC5)nc4c3)CC2)c2cccnc21
3. Cc1ccc2c(C3CCN(c4ccc5oc(N6CCOCC6)nc5c4)CC3)n[nH]c2c1
4. c1ccc2c(C3CCN(c4ccc5oc(N6CCOCC6)nc5c4)C3)c[nH]c2c1 (centres unmarked) [Example 40]
5. c1ccc2c(C3CCN(c4ccc5oc(N6CCOCC6)nc5c4)C3)c[nH]c2c1 (centres unmarked) [Example 39]
6. C(#Cc1c[nH]c2ccccc12)c1ccc2oc(N3CCOCC3)nc2c1
7. Cn1cc(C2CCN(c3ccc4nc(N5CCOCC5)oc4c3)CC2)c2cc(F)cnc21 [Example 111, hydrochloride]

(A)
5.00 to 6.00
5.00 to 6.00
5.00 to 6.00
> 6.00
5.00 to 6.00
5.00 to 6.00
5.00 to 6.00

(Q) Name the recorded pEC50 of the molecule listed here: Cn1cc(C2CCN(c3ccc4sc(N5CCOCC5)nc4c3)C2)c2cc(F)cnc21 (centres unmarked) [Example 81]
(A) > 6.00

###

# TESTED_ON: flTau aggregates (longest isoform of human Tau, 2N4R) (Homo sapiens, UniProt P10636)
# Construct: 35 μM of recombinant full-length (fl) Tau in phosphate-buffered saline (PBS) were aggregated; purchased Biotechne; host or cells: bacteria
# TEST_DETAILS: Full-length Tau (flTau) disaggregation assay by Thioflavin T (ThT)
# Format: biochemical
# EXPERIMENTAL_SETUP: ThT fluorescence; 60 nM flTau aggregates, 30 minutes at RT; read-out: flTau disaggregation EC50
Could you please report measured EC50 for the items listed next?

MOLECULE	EC50
c1ccc2c(C3CCN(c4cnc5nc(N6CCOCC6)oc5c4)CC3)c[nH]c2c1 [Example 100]	1 to 10 µM
Cc1cccc2c(C3CCN(c4ccc5oc(N6CCOCC6)nc5c4)CC3)n[nH]c12 [Example 78]	1 to 10 µM
Cn1cc(C2CCN(c3ccc4oc(N5CCOCC5)nc4c3)CC2)c2cc(F)ccc21 [Example 51]	1 to 10 µM

// switching to the query molecule
(Q) Under flTau aggregates (longest isoform of human Tau, 2N4R) (Homo sapiens, UniProt P10636): report EC50 of c1ccc2c(C3CCN(c4cnc5nc(N6CCOCC6)sc5c4)CC3)n[nH]c2c1 [Example 41] .
(A) 1 to 10 µM

###

# TESTED_ON: Tau K18 fragment aggregates (amino acids 244 to 372 of human Tau441) (Homo sapiens, UniProt P10636)
# Construct: encompassing amino acids 244 to 372 of the longest isoform (2N4R) of human Tau441
# Sequence (P10636 561-689): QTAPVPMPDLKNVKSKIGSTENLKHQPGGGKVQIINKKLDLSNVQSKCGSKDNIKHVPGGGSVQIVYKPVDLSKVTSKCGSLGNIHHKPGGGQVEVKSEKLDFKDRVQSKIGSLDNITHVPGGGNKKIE
# TEST_DETAILS: Tau K18 disaggregation assay by ThT
# EXPERIMENTAL_SETUP: ThT fluorescence; 2 μM K18 aggregates, 30 minutes at RT
Where a name gives a salt, the structure may show the parent alone.
MEASURE: EC50

Solved cases below.
COMPOUND	EC50
c1ccc2c(C3CCN(c4ccc5nc(N6CCOCC6)sc5c4)CC3)n[nH]c2c1 [Example 44]	1 to 10 µM
c1ccc2c(N3CCN(c4ccc5oc(N6CCOCC6)nc5c4)CC3)c[nH]c2c1 [Example 56]	1 to 10 µM

For each of the compounds below, state EC50.
1. c1ccc2c(C3CCN(c4cc5nc(N6CCOCC6)sc5cn4)CC3)n[nH]c2c1 [Example 66]
2. c1ccc2c(C3CCN(c4ccc5nc(N6CCOCC6)oc5n4)CC3)n[nH]c2c1 [Example 64]
3. c1ccn2c(C3CCN(c4ccc5nc(N6CCOCC6)oc5c4)CC3)cnc2c1 [Example 59]
4. c1ccc2c(C3CCN(c4ccc5oc(N6CCOCC6)nc5c4)C3)n[nH]c2c1 (centres unmarked) [Example 38]
5. c1ccc2c(C3CCN(c4ccc5nc(N6CCOCC6)oc5c4)CC3)c[nH]c2c1 [Example 52]
6. c1ccc2c(C3CCN(c4ccc5oc(N6CCOCC6)nc5c4)C3)n[nH]c2c1 (centres unmarked) [Example 37]
7. C1=C(c2n[nH]c3ccccc23)CCN(c2ccc3oc(N4CCOCC4)nc3c2)C1 [Example 50]
8. Cn1cc(C2=CCN(c3ccc4oc(N5CCOCC5)nc4c3)CC2)c2cc(F)cnc21 [Example 32]

(A)
1: < 1 µM; 2: 1 to 10 µM; 3: 1 to 10 µM; 4: 1 to 10 µM; 5: 10 to 50 µM; 6: < 1 µM; 7: < 1 µM; 8: 1 to 10 µM

For each of the compounds below, state EC50.
1. c1ccc2c(C3CCN(c4cc5nc(N6CCOCC6)sc5cn4)CC3)c[nH]c2c1 [Example 67]
2. Cn1cc(C2CCN(c3ccc4oc(N5CCOCC5)nc4c3)CC2)c2cc(F)ccc21 [Example 51]
3. c1ccc2c(C3CCN(c4cnc5sc(N6CCOCC6)nc5c4)CC3)c[nH]c2c1 [Example 65]
4. Cn1cc(C2CCN(c3ccc4nc(N5CCOCC5)oc4c3)CC2)c2cc(F)cnc21 [Example 111, hydrochloride]
5. c1ccc2c(C3CCN(c4cc5oc(N6CCOCC6)nc5cn4)CC3)c[nH]c2c1 [Example 58]
6. Cn1cc(C#Cc2ccc3oc(N4CCOCC4)nc3c2)c2cc(F)cnc21 [Example 46]
7. Cn1cc(C2CCN(c3ccc4oc(N5CCOCC5)nc4c3)C2)c2cc(F)cnc21 (centres unmarked) [Example 34]

(A)
["< 1 µM", "10 to 50 µM", "1 to 10 µM", "1 to 10 µM", "10 to 50 µM", "1 to 10 µM", "1 to 10 µM"]

Source: patent US20230391774A1
